# system.tested: sGC α1/β1 heterodimer stably expressed in CHO-K1 cells (CHO-K1/sGC) (Homo sapiens, UniProt Q02108+Q02153)
# Construct: expressed in transfected cells
# protocol.summary: Cell-based sGC functional assay (CASA assay), cGMP generation by HTRF
# condition.set: CHO-K1, maximum cGMP production of Compound A set to 100% activation; read-out: % Act. (percent activation relative to Compound A)
In this section we review reported Emax values for a set of compounds.
Please respond with the number in % and leave the unit unwritten.

CC1(c2ccc(Cl)cc2)C(=O)Nc2nc(-c3cn4ccnc4c(OCc4ccccc4)n3)nc(N)c21 (stereo not drawn) [Example 48A] = 106
C[C@H](Oc1nc(-c2nc(N)c3c(n2)NC(=O)C3(C)c2ccc(Cl)cc2)cn2ccnc12)c1ccccc1 (single isomer, unassigned; fast eluting) [Example 69A] = 103

Documented Emax of CC1(c2ccccc2)C(=O)Nc2nc(-c3cn4ccnc4c(OCC(F)(F)C(F)(F)F)n3)nc(N)c21 (stereo not drawn) : 97

###

In this section we review reported Emax values for a set of compounds.
# system.tested: sGC α1/β1 heterodimer stably expressed in CHO-K1 cells (CHO-K1/sGC) (Homo sapiens, UniProt Q02108+Q02153)
# Construct: expressed in transfected cells
# protocol.summary: Cell-based sGC functional assay (CASA assay), cGMP generation by HTRF
# condition.set: CHO-K1, maximum cGMP production of Compound A set to 100% activation; read-out: % Act. (percent activation relative to Compound A)
Please respond with the number in % and leave the unit unwritten.

Answered examples (3):
CC1(c2ccccc2)C(=O)Nc2nc(-c3cn4ccnc4c(Oc4ccc(F)c(F)c4F)n3)nc(N)c21 (stereo not shown) [Example 11B] = 104
CC1(c2ccc(Cl)cc2)C(=O)Nc2nc(-c3cn4ccnc4c(NCC4CCCOC4)n3)nc(N)c21 (single isomer, unassigned; fast eluting) [Example 72A] = 96
Nc1nc(-c2cn3ccnc3c(OCC(F)(F)C(F)(F)F)n2)nc2c1C(c1ccc(F)cc1)(C1CC1)C(=O)N2 (stereo not shown) [Example 14B] = 96

# ---- query compound ----
Documented Emax of CCC1(CNc2nc(-c3nc(N)c4c(n3)NC(=O)C4(C)c3ccc(Cl)cc3)cn3ccnc23)CC1 (stereo not shown) [Example 57A] : 123

###

# system.tested: sGC α1/β1 heterodimer stably expressed in CHO-K1 cells (CHO-K1/sGC) (Homo sapiens, UniProt Q02108+Q02153)
# Construct: expressed in transfected cells
# Sequence (Q02108 1-690): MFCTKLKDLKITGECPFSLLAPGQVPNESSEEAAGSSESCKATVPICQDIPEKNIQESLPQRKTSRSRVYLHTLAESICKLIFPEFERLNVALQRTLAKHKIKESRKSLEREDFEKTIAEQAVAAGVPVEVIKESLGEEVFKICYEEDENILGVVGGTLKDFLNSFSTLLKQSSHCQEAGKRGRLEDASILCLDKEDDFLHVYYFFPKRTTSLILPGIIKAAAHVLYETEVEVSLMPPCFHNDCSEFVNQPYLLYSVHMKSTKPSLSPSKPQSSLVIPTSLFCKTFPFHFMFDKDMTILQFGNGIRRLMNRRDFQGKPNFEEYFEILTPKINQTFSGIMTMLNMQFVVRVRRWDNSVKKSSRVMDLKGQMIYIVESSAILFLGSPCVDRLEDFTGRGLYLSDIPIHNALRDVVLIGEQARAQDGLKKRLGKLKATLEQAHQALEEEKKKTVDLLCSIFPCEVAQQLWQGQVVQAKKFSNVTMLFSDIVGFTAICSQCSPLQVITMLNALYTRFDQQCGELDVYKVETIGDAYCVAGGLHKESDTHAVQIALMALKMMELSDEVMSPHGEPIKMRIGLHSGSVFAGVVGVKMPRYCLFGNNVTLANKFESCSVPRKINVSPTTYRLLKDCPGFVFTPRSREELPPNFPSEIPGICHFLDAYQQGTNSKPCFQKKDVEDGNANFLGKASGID
# Sequence (Q02153 1-619): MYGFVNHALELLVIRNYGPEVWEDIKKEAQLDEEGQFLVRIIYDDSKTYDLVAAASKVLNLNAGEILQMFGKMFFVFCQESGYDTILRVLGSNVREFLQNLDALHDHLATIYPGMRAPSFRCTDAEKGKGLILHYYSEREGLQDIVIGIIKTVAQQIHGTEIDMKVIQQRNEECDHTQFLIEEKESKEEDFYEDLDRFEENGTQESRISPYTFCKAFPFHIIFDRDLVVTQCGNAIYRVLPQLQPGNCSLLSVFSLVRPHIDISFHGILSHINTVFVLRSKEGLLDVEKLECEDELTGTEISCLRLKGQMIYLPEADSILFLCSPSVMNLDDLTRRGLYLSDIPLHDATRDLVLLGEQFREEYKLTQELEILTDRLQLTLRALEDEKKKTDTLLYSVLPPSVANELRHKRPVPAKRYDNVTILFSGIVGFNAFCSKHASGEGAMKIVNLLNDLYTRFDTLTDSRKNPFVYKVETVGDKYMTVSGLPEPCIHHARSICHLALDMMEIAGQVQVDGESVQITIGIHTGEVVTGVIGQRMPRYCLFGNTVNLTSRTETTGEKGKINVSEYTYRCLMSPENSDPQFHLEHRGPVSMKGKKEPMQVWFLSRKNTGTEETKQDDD
# protocol.summary: Cell-based sGC functional assay (CASA assay), cGMP generation by HTRF
# condition.set: CHO-K1, maximum cGMP production of Compound A set to 100% activation; read-out: % Act. (percent activation relative to Compound A)
In this section we review reported Emax values for a set of compounds.
Please respond with the number in % and leave the unit unwritten.

COCCNc1nc(-c2nc(N)c3c(n2)NC(=O)C3(C)c2ccc(Cl)cc2)cn2ccnc12 (stereo not shown) [Example 40A] = 117
CC1(C)C(=O)Nc2nc(-c3cn4ccnc4c(Oc4cc(F)cc(F)c4)n3)nc(N)c21 = 89
CCCOc1nc(-c2nc(N)c3c(n2)NC(=O)C3(C)c2ccc(F)cc2)cn2ccnc12 (stereo not shown) [Example 39A] = 109

Documented Emax of CC1(c2ccc(F)cc2)C(=O)Nc2nc(-c3cn4ccnc4c(Oc4cc(F)cc(F)c4)n3)nc(N)c21 (stereo not shown) [Example 23A] : 100

Documented Emax of CC1(c2ccc(F)cc2)C(=O)Nc2nc(-c3cn4ccnc4c(NCC4CC(F)(F)C4)n3)nc(N)c21 (stereo not shown) [Example 53A] : 110

Documented Emax of CC1(c2ccccc2)C(=O)Nc2nc(-c3cn4ccnc4c(Oc4c(F)ccc(F)c4F)n3)nc(N)c21 (stereo not shown) : 112

Documented Emax of CC1(c2ccc(F)cc2)C(=O)Nc2nc(-c3cn4ccnc4c(OC4CCCC4)n3)nc(N)c21 (stereo not shown) [Example 46A] : 108
